- ASSAYED_SYSTEM: His-tagged BACE1 protein (Example 15) (Homo sapiens (Human), UniProt P56817 22-457)
- Sequence (P56817 22-457 limits assumed): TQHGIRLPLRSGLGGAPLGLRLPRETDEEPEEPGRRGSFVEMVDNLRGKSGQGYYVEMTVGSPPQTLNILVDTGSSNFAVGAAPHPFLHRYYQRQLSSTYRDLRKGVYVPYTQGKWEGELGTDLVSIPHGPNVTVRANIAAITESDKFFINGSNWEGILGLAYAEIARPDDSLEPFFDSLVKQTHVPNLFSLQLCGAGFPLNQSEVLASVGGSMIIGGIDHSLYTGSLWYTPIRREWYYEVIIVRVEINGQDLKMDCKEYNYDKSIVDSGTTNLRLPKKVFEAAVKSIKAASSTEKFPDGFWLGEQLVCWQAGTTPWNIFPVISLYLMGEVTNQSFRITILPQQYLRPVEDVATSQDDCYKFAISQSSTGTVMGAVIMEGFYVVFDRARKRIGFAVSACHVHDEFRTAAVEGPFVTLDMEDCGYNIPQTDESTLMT
- ASSAY_NOTES: SPR (Biacore T200), Fab on captured His-BACE1;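 note: Single-cycle kinetics with serially diluted Fab flowed over BACE1 captured by anti-His antibody on a CM5 chip, rates fitted to a one-to-one Langmuir model, Kd derived as koff over kon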
Labelling field: enter condition met if recorded kon is less than 500000 M⁻¹ s⁻¹. Enter condition not met if it equals or exceeds that cut-off.

Worked cases, answers included:
6266.10 Fab (Fab, V domains shown) VH: QVQLVQSGAEVKKPGSSVKVSCKASGGTLSGYGVSWVRQAPGQGLEWMGNIIPGFGTANYAQKFQGRVTITADESTSTAYMELSSLRSEDTAVYYCARSGGTKYGMLDVWGQGTMVTVSS VL: EIVMTQSPATLSVSPGERATLSCRASQSVSSNLAWYQQKPGQAPRLLIYGASKRATGIPARFSGSGSGTEFTLTISSLQSEDFAVYYCQQLILWPPRTFGGGTKVEIK    condition not met
6266.3 Fab (Fab, V domains shown) VH: QVQLVQSGAEVKKPGSSVKVSCKASGGTLSHYGVSWVRQAPGQGLEWMGNIIPGIGTANYAQKFQGRVTITADESTSTAYMELSSLRSEDTAVYYCARSGGTKYGMLDVWGQGTMVTVSS VL: EIVMTQSPATLSVSPGERATLSCRASQSVSSNLAWYQQKPGQAPRLLIYGASTRAYGIPARFSGSGSGTEFTLTISSLQSEDFAVYYCQQLILWPPRTFGGGTKVEIK    condition met
6266.7 Fab (Fab, V domains shown) VH: QVQLVQSGAEVKKPGSSVKVSCKASGGTLSHYGVSWVRQAPGQGLEWMGNIIPGIGTANYAQKFQGRVTITADESTSTAYMELSSLRSEDTAVYYCARSGGTKYGELDVWGQGTMVTVSS VL: EIVMTQSPATLSVSPGERATLSCRASQSVSSNLAWYQQKPGQAPRLLIYGASTRAYGIPARFSGSGSGTEFTLTISSLQSEDAAVYYCQQLILWPPRTFGGGTKVEIK    condition not met

Input: Determine if 6266.13 Fab (Fab, V domains shown) VH: QVQLVQSGAEVKKPGSSVKVSCKASGGTLSGYGMSWVRQAPGQGLEWMGNIIPGFGTANYAQKFQGRVTITADESTSTAYMELSSLRSEDTAVYYCARSGGTKYGMLDVWGQGTMVTVSS VL: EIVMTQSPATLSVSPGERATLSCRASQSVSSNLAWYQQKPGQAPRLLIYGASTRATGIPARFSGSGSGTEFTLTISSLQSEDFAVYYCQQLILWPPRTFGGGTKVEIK shows kon strictly lower than 500000 M⁻¹ s⁻¹.
Output: condition not met

Input: Determine if 6266.9 Fab (Fab, V domains shown) VH: QVQLVQSGAEVKKPGSSVKVSCKASGGTLKGYGVSWVRQAPGQGLEWMGNIIPGFGTANYAQKFQGRVTITADESTSTAYMELSSLRSEDTAVYYCARGGGTKYGMLDVWGQGTMVTVSS VL: EIVMTQSPATLSVSPGERATLSCRASQSVSSNLAWYQQKPGQAPRLLIYGASKRATGIPARFSGSGSGTEFTLTISSLQSEDFAVYYCQQLILWPPRTFGGGTKVEIK shows kon strictly lower than 500000 M⁻¹ s⁻¹.
Output: condition met

Input: Determine if 6266.1 Fab (Fab, V domains shown, not tied singly) VH: QVQLVQSGAEVKKPGSSVKVSCKASGGTLSHYGVSWVRQAPGQGLEWMGNIIPGIGTANYAQKFQGRVTITADESTSTAYMELSSLRSEDTAVYYCARSGGTKYGMLDVWGQGTMVTVSS VL: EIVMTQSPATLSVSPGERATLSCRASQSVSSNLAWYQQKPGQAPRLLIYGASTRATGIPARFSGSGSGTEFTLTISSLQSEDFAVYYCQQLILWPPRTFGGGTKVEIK shows kon strictly lower than 500000 M⁻¹ s⁻¹.
Output: condition not met

Input: Determine if 6266wt (Fab, V domains shown, also called ADI6266) VH: QVQLVQSGAEVKKPGSSVKVSCKASGGTLSGYGVSWVRQAPGQGLEWMGNIIPGFGTANYAQKFQGRVTITADESTSTAYMELSSLRSEDTAVYYCARSGGTKYGMLDVWGQGTMVTVSS VL: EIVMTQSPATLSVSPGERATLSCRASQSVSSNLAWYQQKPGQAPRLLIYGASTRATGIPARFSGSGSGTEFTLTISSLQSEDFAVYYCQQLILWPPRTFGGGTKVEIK shows kon strictly lower than 500000 M⁻¹ s⁻¹.
Output: condition met

Input: Determine if 6266.14 Fab (Fab, V domains shown) VH: QVQLVQSGAEVKKPGSSVKVSCKASGGTLSGYGVSWVRQAPGQGLEWMGNIIPGFGVANYAQKFQGRVTITADESTSTAYMELSSLRSEDTAVYYCARSGGTKWGMLDVWGQGTMVTVSS VL: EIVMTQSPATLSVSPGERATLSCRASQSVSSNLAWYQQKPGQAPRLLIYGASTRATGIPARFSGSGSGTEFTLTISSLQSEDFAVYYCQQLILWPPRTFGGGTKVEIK shows kon strictly lower than 500000 M⁻¹ s⁻¹.
Output: condition not met

Input: Determine if 6266.11 Fab (Fab, V domains shown) VH: QVQLVQSGAEVKKPGSSVKVSCKASGGTLSGYGVSWVRQAPGQGLEWMGNIIPGFGTANYAQKFQGRVTITADESTSTAYMELSSLRSEDTAVYYCARSGGTKYGMLDVWGQGTMVTVSS VL: EIVMTQSPATLSVSPGERATLSCRASQSVSSNLAWYQQKPGQAPRLLIYGASTRAYGIPARFSGSGSGTEFTLTISSLQSEDFAVYYCQQLILWPPRTFGGGTKVEIK shows kon strictly lower than 500000 M⁻¹ s⁻¹.
Output: condition not met
